Cited source for all entries: ChEMBL document CHEMBL4011622

- targetEntity: Glutamate NMDA receptor; Grin1/Grin2c (Rattus norvegicus) (UniProt P35439+Q00961)
- assayInfo: Positive allosteric modulation of recombinant rat GluN1/GluN2C receptor expressed in xenopus laevis oocyte assessed as compound concentration required to show two fold increase in glutamate and glycine-induced current response at holding potential -40mV by two electrode voltage clamp method
endpointName: CD (µM)
Give the quantity in µM, number only.

Q: Could you tell me which CD is on file for COc1ccc(OCC2c3ccc(OC(C)C)cc3CCN2C(=O)c2cccc(Cl)c2)cc1 (stereo not drawn) ?
Ans: 4.6

Q: So what's the measured CD for this one? COc1ccc(OCC2c3ccc(OC(C)C)cc3CCN2C(=S)c2cccc(F)c2)cc1 (stereo not drawn)
Ans: 2.1

Q: Using the record for COc1ccc(OC[C@H]2c3ccc(OC(C)C)cc3CCN2C(=O)c2cccc(Cl)c2)cc1 , report its CD.
Ans: 1.3
